tested on: CCRIS mutagenicity, Ames/micronucleus/aberration tests; experiment: CCRIS mutagenicity studies; settings: Test System: AMES SALMONELLA TYPHIMURIUM; Strain/Indicator: TA100; Metabolic Activation: HAMSTER, LIVER, S-9, AROCLOR 1254; Method: PREINCUBATION
Calls of active or inactive are those of the source. How the calls were made is not given here.
The categories you may choose from are YES for active, NO for inactive

Here are 6 compounds together with their reported answers.
{"Compound": "O=[N+]([O-])c1cc([As](=O)(O)O)ccc1O", "Class": "NO"}
{"Compound": "NC(=O)CCCCC(N)=O", "Class": "NO"}
{"Compound": "CN[C@@H]1[C@H](O[C@H]2[C@H](O[C@H]3[C@H](O)[C@@H](O)[C@H](N=C(N)N)[C@@H](O)[C@@H]3N=C(N)N)O[C@@H](C)[C@]2(O)C=O)O[C@@H](CO)[C@H](O)[C@H]1O", "Class": "NO"}
{"Compound": "O=[N+]([O-])c1cccc(Cl)c1Cl", "Class": "NO"}
{"Compound": "Oc1cc(Cl)ccc1Cl", "Class": "NO"}
{"Compound": "C1O[C@@H]1[C@@H]1CO1", "Class": "NO"}

Kindly review the next compound as well.
Please state the recorded outcome for this compound: Nc1ccc(-c2ccc(N)c(Cl)c2)cc1Cl
YES

###

test system: CCRIS mutagenicity, Ames/micronucleus/aberration tests; test: CCRIS mutagenicity studies; settings: Test System: AMES SALMONELLA TYPHIMURIUM; Strain/Indicator: TA100; Metabolic Activation: NONE; Method: STANDARD PLATE
Calls of active or inactive are those of the source. No rule for the calls is given here.
The categories you may choose from are TRUE (active), FALSE (inactive)

Here are 10 compounds together with their reported answers.
{"Compound": "O=C1c2ccccc2-c2ccc([N+](=O)[O-])cc21", "Class": "TRUE"}
{"Compound": "C[C@@H](C(=O)O)N(N=[N+]=[N-])C(=O)OC(C)(C)C", "Class": "TRUE"}
{"Compound": "O=NO", "Class": "TRUE"}
{"Compound": "COc1cc(O)c2c(=O)c(O)c(-c3ccc(O)c(O)c3)oc2c1", "Class": "FALSE"}
{"Compound": "O=C(O)O", "Class": "FALSE"}
{"Compound": "CCCCCCCC(=O)Nc1snc2ccccc12", "Class": "FALSE"}
{"Compound": "O=S(O)(O)=S", "Class": "FALSE"}
{"Compound": "Cc1ccccc1NS(=O)(=O)c1cccc2cccnc12", "Class": "FALSE"}
{"Compound": "O=C1OC(=C(Cl)Cl)C(Cl)=C1Cl", "Class": "TRUE"}
{"Compound": "CC(CF)NCC(O)COc1cccc2[nH]c3ccccc3c12 (centres undefined)", "Class": "TRUE"}

Please state the recorded outcome for this compound: Cc1cc(N)c(C)c2c1[nH]c1ccc(O)cc12
FALSE

Please state the recorded outcome for this compound: O=S(=O)(O)CNc1ccc(N=Nc2cccnc2)cc1
FALSE

Please state the recorded outcome for this compound: NC(Cc1ccc(O)cc1)C(=O)O (centres undefined)
FALSE

Please state the recorded outcome for this compound: O=Cc1ccccc1[N+](=O)[O-]
FALSE

###

test system: CCRIS mutagenicity, Ames/micronucleus/aberration tests; assay: CCRIS mutagenicity studies; conditions: Test System: AMES SALMONELLA TYPHIMURIUM; Strain/Indicator: TA102; Metabolic Activation: RAT, LIVER, S-9, PHENOBARBITAL AND 5,6-BENZOFLAVONE; Method: PREINCUBATION
Activity calls are given as the source filed them. How the calls were made is not given here.
The categories you may choose from are 1.0 (active), 0.0 (inactive)

Here are 4 molecules together with their reported answers.
{"Molecule": "COC1=C(OC)C(=O)C(C)=CC1=O", "Assay Target": "CCRIS mutagenicity, Ames/micronucleus/aberration tests", "Class": 0.0}
{"Molecule": "CC(=O)Oc1cc(C=O)cc2c1C(COC(N)=O)C1(OC(C)=O)ON2CC2C1N2C(C)=O (stereo not given)", "Assay Target": "CCRIS mutagenicity, Ames/micronucleus/aberration tests", "Class": 1.0}
{"Molecule": "O=C(O)C(=O)C(=O)O", "Assay Target": "CCRIS mutagenicity, Ames/micronucleus/aberration tests", "Class": 0.0}
{"Molecule": "NC1=CC(=O)C(=O)c2ccccc21", "Assay Target": "CCRIS mutagenicity, Ames/micronucleus/aberration tests", "Class": 0.0}

Kindly review the next molecule as well.
Please state the recorded outcome for this molecule: CC(C)=CCC1=C(O)c2ccccc2C(=O)C1=O
0.0

###

system: CCRIS mutagenicity, Ames/micronucleus/aberration tests; test: CCRIS mutagenicity studies; conditions: Test System: AMES SALMONELLA TYPHIMURIUM; Strain/Indicator: TA100; Metabolic Activation: NONE; Method: STANDARD PLATE
The source made the active and inactive calls. The rule behind the calls is not given here.
Assay Metric: mutagenic call

Worked examples, 5 compounds total:
{"Compound": "O=C(O)CCC(=O)N(O)c1ccc(Cl)cc1", "mutagenic call": "inactive; negative"}
{"Compound": "CC1=CC(C=O)C(C=O)=C[C@@H]2CC(C)(C)C[C@H]12 (stereo partly specified)", "mutagenic call": "inactive; negative"}
{"Compound": "CC(=O)Nc1ccc(C(=O)[C@H]2O[C@H]2c2ccccc2)cc1", "mutagenic call": "active; positive"}
{"Compound": "C[C@H](CCC(=O)NCCS(=O)(=O)O)[C@H]1CC[C@H]2[C@@H]3C[C@H](O)[C@@H]4C[C@H](O)CC[C@]4(C)[C@H]3CC[C@]12C", "mutagenic call": "inactive; negative"}
{"Compound": "CC1(C(=O)Nc2ccccc2)CO1 (stereo unspecified)", "mutagenic call": "active; positive"}

Now turn to the next compound.
Record request: mutagenic call value, item C=CC(=O)OCCCC
inactive; negative

###

system: CCRIS mutagenicity, Ames/micronucleus/aberration tests; experiment: CCRIS mutagenicity studies; conditions: Test System: E. COLI; Strain/Indicator: WP2 UVRA; Metabolic Activation: NONE; Method: FLUCTUATION TEST
Activity calls are given as the source filed them. The rule behind the calls is not given here.
The categories you may choose from are 1 (yes) for active, 0 (no) for inactive

{"Line Notation": "NC(=O)OCc1ccccc1", "Assay Target": "CCRIS mutagenicity, Ames/micronucleus/aberration tests", "Class": "0 (no)"}
{"Line Notation": "CCOC(N)=O", "Assay Target": "CCRIS mutagenicity, Ames/micronucleus/aberration tests", "Class": "0 (no)"}
{"Line Notation": "O=[N+]([O-])c1ccc(NO)cc1", "Assay Target": "CCRIS mutagenicity, Ames/micronucleus/aberration tests", "Class": "1 (yes)"}

Please state the recorded outcome for this compound: CCc1ccc(NO)cc1
1 (yes)

Please state the recorded outcome for this compound: CCCCCCOC(=O)NO
1 (yes)

Please state the recorded outcome for this compound: ONc1ccc(Br)cc1
0 (no)

###

test system: CCRIS mutagenicity, Ames/micronucleus/aberration tests; experiment: CCRIS mutagenicity studies; details: Test System: AMES SALMONELLA TYPHIMURIUM; Strain/Indicator: TA100; Metabolic Activation: NONE; Method: STANDARD PLATE
The source made the active and inactive calls. The rule behind the calls is not given here. Where a SMILES comes first, the peptide text is derived from it.
The categories you may choose from are true = active, false = inactive

Here are 4 compounds together with their reported answers.
{"Compound": "CC(C)C[C@H](NC(=O)[C@H](Cc1ccccc1)NC(=O)CNC(=O)CN)C(=O)O (H-GGFL-OH)", "Class": "false"}
{"Compound": "CCCCc1c(N)ccc2ccccc12", "Class": "false"}
{"Compound": "O=[N+]([O-])c1ccc2ccc3c([N+](=O)[O-])cccc3c2c1", "Class": "true"}
{"Compound": "COc1ccc(CN(CC[N+](C)(C)[O-])c2ccccn2)cc1", "Class": "false"}

Please state the recorded outcome for this compound: CC(=O)OCc1c2ccccc2cc2ccccc12
true

Please state the recorded outcome for this compound: O=[N+]([O-])c1cccc(S(=O)(=O)OC[C@H]2CO2)c1
true

###

system: CCRIS mutagenicity, Ames/micronucleus/aberration tests; test: CCRIS mutagenicity studies; conditions: Test System: AMES SALMONELLA TYPHIMURIUM; Strain/Indicator: TA98; Metabolic Activation: NONE; Method: FLUCTUATION TEST
Activity calls are given as the source filed them. The rule behind the calls is not given here.
The categories you may choose from are active, inactive

{"Line Notation": "C[C@H](CCC(=O)O)[C@H]1CC[C@H]2[C@@H]3C(=O)C[C@@H]4CC(=O)CC[C@]4(C)[C@H]3CC[C@]12C", "Class": "inactive"}
{"Line Notation": "C[C@H](CCC(=O)O)[C@H]1CC[C@H]2[C@@H]3[C@@H](O)C[C@@H]4C[C@H](O)CC[C@]4(C)[C@H]3CC[C@]12C", "Class": "active"}
{"Line Notation": "C[C@H](CCC(=O)O)[C@H]1CC[C@H]2[C@@H]3CC[C@@H]4CC(=O)CC[C@]4(C)[C@H]3C[C@@H](O)[C@]12C", "Class": "inactive"}

Kindly review the next compound as well.
Please state the recorded outcome for this compound: C[C@H](CCC(=O)O)[C@H]1CC[C@H]2[C@@H]3C(=O)C[C@@H]4C[C@H](O)CC[C@]4(C)[C@H]3CC[C@]12C
inactive
